Sourced from patent US12594292B2

system: HIV-1; conditions: HIV infected human PBMCs
Quantity: EC50

>>> recorded_value("CCCCCCCCCCCCCCCCCCOCCOP(=O)(O)CO[C@H](C)Cn1cnc2c(N)ncnc21")
"1100 pM"
>>> recorded_value("CCCCCCCC/C=C\\CCCCCCCCOCCOP(=O)(CO[C@H](C)Cn1cnc2c(N)nc(N)nc21)OCc1ccccc1 (stereo partly shown)")
"active"
>>> recorded_value("CCCCCCCCCCCCCCCCCCOCCOP(=O)(O)CO[C@H](C)Cn1cnc2c(N)nc(N)nc21")
"90 pM"
>>> recorded_value("CCCCCCCCCCCCCCCCCCOCCOP(=O)(CO[C@H](C)Cn1cnc2c(N)nc(N)nc21)OCc1ccccc1 (stereo partly shown)")
"active"
